# test system: UniProt Q8TDV5
# Sequence (Q8TDV5 1-335): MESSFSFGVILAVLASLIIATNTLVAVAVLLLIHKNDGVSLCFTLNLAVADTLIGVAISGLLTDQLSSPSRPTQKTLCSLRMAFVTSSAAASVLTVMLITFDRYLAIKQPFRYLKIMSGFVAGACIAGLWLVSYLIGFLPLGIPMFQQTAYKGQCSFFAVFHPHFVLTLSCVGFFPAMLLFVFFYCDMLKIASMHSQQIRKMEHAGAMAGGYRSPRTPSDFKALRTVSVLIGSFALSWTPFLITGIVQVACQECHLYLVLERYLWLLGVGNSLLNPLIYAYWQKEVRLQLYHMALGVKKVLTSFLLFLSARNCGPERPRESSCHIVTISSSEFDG
# protocol notes: Measurement of GPR119 signaling using LANCE 384-well cAMP kit (LCMP assay)
# assay conditions: HEK293 cells stably transfected with human GPR119
Record form. Attribute: EC50. Fill in for each entry.
Express your answer in nM, writing the number without its unit.

Task: // query EC50 value for entry COCc1noc(N2CCC([C@@H]3C[C@H]3CCOc3ccc(CC(=O)N4CCC4)c(F)c3)CC2)n1
Result: 19

Task: // query EC50 value for entry CCc1cnc(N2CCC([C@H]3C[C@@H]3CCOc3cc(F)c(CC(=O)N4CCC4)c(F)c3)CC2)nc1
Result: 0.25

Task: // query EC50 value for entry COCc1noc(N2CCC([C@@H]3C[C@H]3CCOc3ccc(-n4cnnn4)cc3F)CC2)n1
Result: 23

Task: // query EC50 value for entry CC(C)c1noc(N2CCC([C@@H]3C[C@H]3CCOc3ccc(CC(=O)N4CCC4)cn3)CC2)n1
Result: 24

Task: // query EC50 value for entry CC(C)c1noc(N2CCC([C@@H]3C[C@H]3CCNc3ncc(-n4cnnn4)cn3)CC2)n1
Result: 16

Task: // query EC50 value for entry CC1(OC(=O)N2CCC([C@H]3C[C@@H]3CCOc3cc(F)c(CC(=O)N4CCC4)c(F)c3)CC2)CC1
Result: 0.7

Task: // query EC50 value for entry CC1(OC(=O)N2CCC([C@@H]3C[C@H]3CCOc3ccc(CC(=O)N4CCC4)c(F)c3)CC2)CC1
Result: 4.2

Task: // query EC50 value for entry Fc1cc(OCC[C@@H]2C[C@H]2C2CCN(c3ncc(Cl)cn3)CC2)ccc1-n1cnnn1
Result: 13

Task: // query EC50 value for entry COCc1noc(N2CCC([C@H]3C[C@@H]3CCOc3ccc(-n4cnnn4)cc3F)CC2)n1
Result: 20

Task: // query EC50 value for entry CCc1cnc(N2CCC([C@H]3C[C@@H]3CCOc3ccc(S(C)(=O)=O)c(F)c3)CC2)nc1
Result: 5.5

Task: // query EC50 value for entry CCc1cnc(N2CCC([C@H]3C[C@@H]3CCNc3ncc(-n4cnnn4)cn3)CC2)nc1
Result: 18

Task: // query EC50 value for entry CC(C)c1noc(N2CCC([C@H]3C[C@@H]3CCOc3ccc(CC(=O)N4CCC4)cc3F)CC2)n1
Result: 9.5

Task: // query EC50 value for entry CCc1cnc(N2CCC([C@@H]3C[C@H]3CCOc3ccc(CC(=O)N4CCC4)cn3)CC2)nc1
Result: 9.7

Task: // query EC50 value for entry CC(C)c1noc(N2CCC([C@@H]3C[C@H]3CCOc3cc(F)c(CC(=O)N(C)C)c(F)c3)CC2)n1
Result: 0.79

Task: // query EC50 value for entry CCc1cnc(N2CCC([C@@H]3C[C@H]3CCOc3ccc(CC(=O)N(C)C)c(F)c3)CC2)nc1
Result: 4.4

Task: // query EC50 value for entry CS(=O)(=O)c1ccc(COC[C@H]2C[C@@H]2C2CCN(c3ncc(Cl)cn3)CC2)c(F)c1
Result: 1.6

Task: // query EC50 value for entry CC(C)c1noc(N2CCC([C@H]3C[C@@H]3CCOc3ccc(S(C)(=O)=O)c(F)c3)CC2)n1
Result: 11

Task: // query EC50 value for entry CC(C)c1noc(N2CCC([C@@H]3C[C@H]3CCOc3ccc(S(C)(=O)=O)c(F)c3)CC2)n1
Result: 7.7

Task: // query EC50 value for entry CC1(OC(=O)N2CCC([C@@H]3C[C@H]3CCOc3ccc(S(C)(=O)=O)c(F)c3)CC2)CC1
Result: 23

Task: // query EC50 value for entry CCc1cnc(N2CCC([C@@H]3C[C@H]3CCOc3ccc(S(C)(=O)=O)cc3F)CC2)nc1
Result: 9.4

Task: // query EC50 value for entry CCc1cnc(N2CCC([C@@H]3C[C@H]3CCOc3ccc(S(=O)(=O)CC)cc3F)CC2)nc1
Result: 18

Task: // query EC50 value for entry CCc1cnc(N2CCC([C@H]3C[C@@H]3CCOc3ccc(CC(=O)N4CCC4)c(F)c3)CC2)nc1
Result: 0.8

Task: // query EC50 value for entry COCc1cnc(N2CCC([C@H]3C[C@@H]3CCOc3ccc(S(C)(=O)=O)c(F)c3)CC2)nc1
Result: 15

Task: // query EC50 value for entry CC(C)c1noc(N2CCC([C@H]3C[C@@H]3CCOc3ccc(CC(=O)N4CCC4)c(F)c3)CC2)n1
Result: 2.6

Task: // query EC50 value for entry CCc1cnc(N2CCC([C@@H]3C[C@H]3CCOc3ccc(-n4cnnn4)c(F)c3)CC2)nc1
Result: 8.7

Task: // query EC50 value for entry CCS(=O)(=O)c1ccc(OCC[C@@H]2C[C@H]2C2CCN(c3nc(C(C)C)no3)CC2)c(F)c1
Result: 3.8

Task: // query EC50 value for entry Clc1cnc(N2CCC([C@H]3C[C@@H]3CCNc3ncc(-n4cnnn4)cn3)CC2)nc1
Result: 10

Task: // query EC50 value for entry COCc1noc(N2CCC([C@H]3C[C@@H]3CCOc3ccc(CC(=O)N(C)C)c(F)c3)CC2)n1
Result: 18

Task: // query EC50 value for entry COCc1noc(N2CCC([C@H]3C[C@@H]3CCOc3cc(F)c(CC(=O)N(C)C)c(F)c3)CC2)n1
Result: 3

Task: // query EC50 value for entry CN(C)C(=O)Cc1ccc(OCC[C@@H]2C[C@H]2C2CCN(C(=O)OC3(C)CC3)CC2)cc1F
Result: 8.8

All values here come from patent US20150274664A1.
